Origin of values: PubChem BioAssay (NCATS)

Experiment: qHTS for Inhibitors of the Functional Ribonucleoprotein Complex (vRNP) of Lymphocytic Choriomeningitis Arenaviruses (LCMV): Viability assay - alamar blue signal for LCMV Primary Screen (AID 1347085); further: nearly all actives have a fitted effect of over 80% in size
Conditions: alamar blue viability counter-screen, LCMV vRNP screen cells; series mostly up to 57.5 µM
Inconclusive results are not listed. Activity calls are given as the source filed them. The call rests on the fitted dose curve; tested in HEK293 reporter line.
Allowed answers: 1 (yes) for active, 0 (no) for inactive

1) CC(C)Oc1cccc(NC(=O)c2ccccc2C(F)(F)F)c1    0 (no)
2) Cn1c(=O)n(-c2ccc(C(C)(C)C#N)cc2)c2c3cc(-c4cnc5ccccc5c4)ccc3ncc21    1 (yes)

Please indicate how the test categorized CCCN(CCC)C1CCc2ccc(O)cc2C1 (stereo not given) .
0 (no)

Please indicate how the test categorized C[C@H](NC(=O)Cc1cc(F)cc(F)c1)C(=O)N[C@@H]1C(=O)N(C)c2ccccc2-c2ccccc21 .
0 (no)

Please indicate how the test categorized COc1cccc2c1[C@]13CCN(CC4CC4)[C@H](C2)[C@]1(OC)CCC(=O)C3 .
0 (no)
